- Test system: Neuraminidase from Clostridium perfringens (bacterial neuraminidase)
- Format: binding
- CONDITIONS USED: fluorescence quenching, pH 5.0
This listing pairs compounds with measured KA (binding constant).
The reply should be a number in L/mol, with the unit left off.

For orientation, consider the following solved cases.
COMPOUND	UNIT LABEL	KA (binding constant)
COc1ccc(-c2oc3c(CC=C(C)C)c(O)cc(O)c3c(=O)c2O[C@@H]2O[C@@H](C)[C@H](O)[C@@H](O)[C@H]2O[C@@H]2OC[C@@H](O)[C@H](O)[C@H]2O)cc1 [Compound 6, sagittatoside B]	L/mol	505700
O=c1cc(-c2ccc(O)c(O)c2)oc2cc(O)cc(O)c12 [Luteolin, luteolin, reference compound]	L/mol	557800

// next item, KA (binding constant) requested
Value of KA (binding constant) reported for the compound COc1ccc(-c2oc3c(c(O)cc4oc(C(C)(C)O)cc43)c(=O)c2O[C@@H]2O[C@@H](C)[C@H](O)[C@@H](O)[C@H]2O)cc1 [Compound 8] is 741600

----------
This listing pairs molecules with measured KSV (Stern–Volmer constant).
- Tested on: Neuraminidase from Clostridium perfringens (bacterial neuraminidase)
- Assay type: binding
- CONDITIONS USED: fluorescence quenching, pH 5.0
Express the reported value numerically, then name its unit.

MOLECULE	KSV (Stern–Volmer constant)
O=c1cc(-c2ccc(O)c(O)c2)oc2cc(O)cc(O)c12 [Luteolin, luteolin, reference compound]	56140 L/mol
COc1ccc(-c2oc3c(CC=C(C)C)c(O[C@@H]4O[C@H](CO)[C@@H](O)[C@H](O)[C@H]4O)cc(O)c3c(=O)c2O[C@@H]2O[C@@H](C)[C@H](O)[C@@H](O)[C@H]2O)cc1	60400 L/mol

For the molecule CC(C)=CCc1cc(-c2cc(=O)c3c(O)cc(O)c(CC=C(C)C)c3o2)cc(O)c1O [Compound 1, epimedokoreanin B] , the measured KSV (Stern–Volmer constant) on Neuraminidase from Clostridium perfringens (bacterial neuraminidase) was 411040 L/mol

----------
- TARGET OR TEST SYSTEM: Neuraminidase from Clostridium perfringens (bacterial neuraminidase)
- Type: biochemical
- CONDITIONS USED: Dixon plots; read-out: Ki (inhibition constant)
Binary call on Ki with cut-off 20 µM: strictly below means rule met, and equality or higher means rule not met.

Some entries whose results are on file:
COMPOUND	TARGET OR TEST SYSTEM	DISCRETE LABEL
CC(C)=CCc1cc(-c2cc(=O)c3c(O)cc(O)c(CC=C(C)C)c3o2)cc(O)c1O [Compound 1, epimedokoreanin B]	Neuraminidase from Clostridium perfringens (bacterial neuraminidase)	rule met
COc1ccc(-c2oc3c(CC=C(C)C)c(O)cc(O)c3c(=O)c2O[C@@H]2O[C@@H](C)[C@H](O)[C@@H](O)[C@H]2O[C@@H]2OC[C@@H](O)[C@H](O)[C@H]2O)cc1 [Compound 6, sagittatoside B]	Neuraminidase from Clostridium perfringens (bacterial neuraminidase)	rule not met
CC(C)=CCc1cc(-c2cc(=O)c3c(O)cc(O)c(CC=C(C)C)c3o2)ccc1O [Compound 3, 5,7,4′-trihydroxy-8,3′-diprenyl flavone]	Neuraminidase from Clostridium perfringens (bacterial neuraminidase)	rule met

input: Say whether its Ki is strictly beneath 20 µM. Entry: COc1ccc(-c2oc3c(c(O)cc4oc(C(C)(C)OC)cc43)c(=O)c2OC2OC(C)C(O)C(O)C2O)cc1 (stereo not shown)
output: rule met

input: Say whether its Ki is strictly beneath 20 µM. Entry: COc1ccc(-c2oc3c(CC=C(C)C)c(O[C@@H]4O[C@H](CO)[C@@H](O)[C@H](O)[C@H]4O)cc(O)c3c(=O)c2O[C@@H]2O[C@@H](C)[C@H](O)[C@@H](O)[C@H]2O)cc1
output: rule not met

input: Say whether its Ki is strictly beneath 20 µM. Entry: CC(C)=CCc1c(O)cc(O)c2c1OC(c1ccc(O)cc1)C(O)C2=O (stereo not shown)
output: rule met

input: Say whether its Ki is strictly beneath 20 µM. Entry: COc1ccc(-c2oc3c(c(O)cc4oc(C(C)(C)O)cc43)c(=O)c2O[C@@H]2O[C@@H](C)[C@H](O)[C@@H](O)[C@H]2O)cc1
output: rule met
